# Test system: MDA-MB-435 melanoma
# measurement.notes: NCI-60 one-dose screen, 48 h
# assay.context: 10 µM unless noted
Compounds without any hit were thinned out: in the full panel of roughly 83,000, 20% have a hit. Active and inactive are the calls of the source. Rule for the calls: active = growth percent below 10; inactive = the rest.
Possible outcomes: active, inactive

compound | experimental.target | label
COc1ccc(C(=O)/C=C/c2cn(-c3ccccc3)nc2-c2cccc(Nc3ccnc4cc(Cl)ccc34)c2)cc1 | MDA-MB-435 melanoma | inactive
Cc1cc(C)c2c(n1)sc1c(Nc3ccc(Cl)cc3Cl)ncnc12 | MDA-MB-435 melanoma | inactive
COc1ccc(C2=CC(c3ccc(OC)cc3Br)N3C=CSC3=N2)cc1 (centres undefined) | MDA-MB-435 melanoma | active
COc1cc2c(cc1OC)C(=O)OC2 | MDA-MB-435 melanoma | inactive
